Hey, just so you know, these numbers are from paper PMC13010326.

- subject_of_test: NSP14 ExoN (Severe acute respiratory syndrome coronavirus 2)
- test: biochemical
- experimental_parameters: original (first) compound batches; read-out: pIC50, inhibition of NSP14 ExoN in biochemical activity assay (converted)
value_kind: IC50 (µM)
Record the value in µM, omitting the unit from your answer.

1) Cc1cc(N2CCNCC2)nc(C)n1 [Compound 1, reference compound]
398

Reported IC50 ( `CC(C)c1csc(CNC(=O)c2cc[nH]n2)n1` ) = 2.51

Record `C=Cc1csc(CNC(=O)c2cc[nH]n2)n1` . Reported IC50: 251

The molecule `O=C(NCc1nc(C2CC2)cs1)c1n[nH]c2ncccc12` showed IC50 equal to 158

In plain terms, `O=C(NCc1nc(C2CC2)cs1)c1cc[nH]n1` has a documented IC50 of 50.1
